- System: UO-31
- procedure_summary: NCI60 growth inhibition, UO-31
- Format: cell-based
- applied_conditions: Renal Cancer
- Protocol: Representative compounds were tested in 60 cell lines (NCI60) at the National Cancer Institute, Developmental Therapeutics Program. Representative compounds were tested in a panel of 60 cancer cells (NCI 60) at the National Cancer Institute. Growth inhibition are shown in table 2, table 3, table 4, table 5, and FIG. 1, FIG. 2, FIG. 3, FIG. 4, FIG. 5.
endpoint_name: Growth inhibition (% control) GIPRCNT
Record the value in % control, omitting the unit from your answer.

// known answers, use as guide
[[record]]
compound = "CN1CCN(c2cc(F)c(NC3=C(Cl)C(=O)c4ncccc4C3=O)c(F)c2)CC1 [Compound 1]"
endpoint_name = "Growth inhibition (% control) GIPRCNT"
reading_unit = "% control"
reading = "−100"

[[record]]
compound = "CN1CCN(c2ccc3nc4c(nc3c2C(F)(F)F)C(=O)c2ncccc2C4=O)CC1 [Compound 50]"
endpoint_name = "Growth inhibition (% control) GIPRCNT"
reading_unit = "% control"
reading = "−19.0631"

[[record]]
compound = "Cc1ccc2c(n1)C(=O)C(Cl)=C(Nc1ccc(N3CCN(C)CC3)cc1)C2=O [Compound 13]"
endpoint_name = "Growth inhibition (% control) GIPRCNT"
reading_unit = "% control"
reading = "−97.3532"


Can you share its Growth inhibition (% control) GIPRCNT? I mean this compound: O=C1c2cccnc2C(=O)c2nc3cc(N4CCN(C5CC5)CC4)ccc3nc21 [Compound 49]
−99.9594

----------
In this section, each of the compounds is paired with its reported Growth inhibition (% control) GIPRCNT.
- Tested on: RPMI-8226
- procedure_summary: NCI60 growth inhibition, RPMI-8226
- Format: cell-based
- applied_conditions: Leukemia
Record the value in % control, omitting the unit from your answer.

[[record]]
chemical_smiles = "O=C1c2cccnc2C(=O)c2nc3cc(N4CCN(C5CC5)CC4)ccc3nc21"
endpoint_name = "Growth inhibition (% control) GIPRCNT"
reading = 25.33

[[record]]
chemical_smiles = "CN1CCN(c2ccc3nc4c(nc3c2C(F)(F)F)C(=O)c2ncccc2C4=O)CC1"
endpoint_name = "Growth inhibition (% control) GIPRCNT"
reading = 27.57

[[record]]
chemical_smiles = "CN1CCN(c2cc(F)c(NC3=C(Cl)C(=O)c4ncccc4C3=O)c(F)c2)CC1"
endpoint_name = "Growth inhibition (% control) GIPRCNT"
reading = "−20.7257"


Read the next record carefully.
Can you share its Growth inhibition (% control) GIPRCNT? I mean this compound: "Cc1ccc2c(n1)C(=O)C(Cl)=C(Nc1ccc(N3CCN(C)CC3)cc1)C2=O"
−32.551
